Exercise: for every item that follows, state its recorded Ki.
# assayedTarget: recombinant 5-HT2A receptor (human) (Homo sapiens)
# Sequence (P28223 whole entry): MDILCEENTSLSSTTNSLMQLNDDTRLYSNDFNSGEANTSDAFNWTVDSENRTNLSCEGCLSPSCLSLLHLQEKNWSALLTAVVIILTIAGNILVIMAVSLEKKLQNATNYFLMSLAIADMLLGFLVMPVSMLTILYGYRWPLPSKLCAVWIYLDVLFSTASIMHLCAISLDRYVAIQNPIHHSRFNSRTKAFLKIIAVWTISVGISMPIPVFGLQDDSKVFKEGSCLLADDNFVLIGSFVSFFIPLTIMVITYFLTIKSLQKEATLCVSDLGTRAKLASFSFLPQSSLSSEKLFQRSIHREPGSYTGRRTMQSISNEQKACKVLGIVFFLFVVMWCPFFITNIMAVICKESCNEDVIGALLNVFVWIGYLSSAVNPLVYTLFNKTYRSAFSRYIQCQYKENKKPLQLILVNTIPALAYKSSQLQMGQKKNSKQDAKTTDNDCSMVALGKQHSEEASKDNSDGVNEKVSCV
# testDescription: 5-HT2A competition binding assay ([3H]-Ketanserin SPA)
Counter-ions that a name gives are not always drawn.
State the answer as a number, implicitly in nM.

Problem: Give me measured Ki, please, for this compound: Cc1cc2n(c1)Cc1cc(Cl)ccc1N=C2N1CCN(CC(C)(C)C(=O)O)CC1 [Example 1]
Solution: 57.5

Problem: Specify reported Ki for the compound shown: Cc1cc2n(c1)Cc1cc(Cl)ccc1N=C2N1CCN(CC(C)(C)C(=O)O)CC1 [Example 13, dihydrochloride]
Solution: 63.2

* * *

# assayedTarget: 5-HT1B (Homo sapiens)
# Sequence (P28222 whole entry, species assumed): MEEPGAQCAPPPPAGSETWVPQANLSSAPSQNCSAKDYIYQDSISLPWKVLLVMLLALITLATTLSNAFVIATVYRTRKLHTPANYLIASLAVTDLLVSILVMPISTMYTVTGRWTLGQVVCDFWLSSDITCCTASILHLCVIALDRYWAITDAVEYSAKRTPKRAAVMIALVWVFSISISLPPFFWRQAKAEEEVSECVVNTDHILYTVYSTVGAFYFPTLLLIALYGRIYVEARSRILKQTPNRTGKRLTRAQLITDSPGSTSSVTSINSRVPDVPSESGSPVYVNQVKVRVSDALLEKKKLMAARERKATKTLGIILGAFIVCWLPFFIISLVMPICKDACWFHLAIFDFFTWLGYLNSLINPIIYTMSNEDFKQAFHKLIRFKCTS
# testDescription: 5-HT1B binding
pKi: −log10 of the molar value.
propertyName: pKi

Problem: Let me know recorded pKi for `Cc1cc2n(c1)Cc1cc(Cl)ccc1N=C2N1CCN(CC(C)(C)C(=O)O)CC1` , thanks.
Solution: < 5.25
